Each recorded value in this set is attributed to the supplement of paper PMC10657565.

For each entry below, report its relative cell viability value.
System: HCC1806
protocol_summary: relative cell viability vs DMSO control (% of DMSO control); higher = less growth inhibition (higher viability)
condition_set: 30 µM; treatment time: 72 h
Give bare numbers.

INSERT INTO measurements (compound, readout_kind, readout_number) VALUES
  ('Cc1nc(Nc2n[nH]c3c2CN(C(=O)N[C@H](CN(C)C)c2ccccc2)C3(C)C)c2sccc2n1', 'relative cell viability', 2.8),
  ('Cn1nccc1Nc1nccc(-c2ccn([C@H](CO)c3ccc(Cl)c(F)c3)c(=O)c2)n1 [GDC-0994]', 'relative cell viability', 73.5),
  ('CN[C@@H]1C[C@H]2O[C@@](C)([C@@H]1OC)n1c3ccccc3c3c4c(c5c6ccccc6n2c5c31)C(=O)N[C@H]4O [UCN-01]', 'relative cell viability', 0.853);

// lookup relative cell viability for COC(=O)[C@@]1(O)C[C@H]2O[C@]1(C)n1c3ccccc3c3c4c(c5c6ccccc6n2c5c31)C(=O)NC4 [K-252a]
0.762

----------
Test system: HCC1806
protocol_summary: relative cell viability vs DMSO control (% of DMSO control); higher = less growth inhibition (higher viability)
condition_set: 3 µM; treatment time: 72 h
readout_kind: relative cell viability
Give bare numbers.

Here's what some known entries look like.
INSERT INTO assay_data (compound, readout_number) VALUES
  ('Cn1c(=O)c(F)c(Nc2ccc(I)cc2F)c2c(=O)n(C[C@@H](O)CO)cnc21', 70.3),
  ('Cn1nccc1Nc1nccc(-c2ccn([C@H](CO)c3ccc(Cl)c(F)c3)c(=O)c2)n1', 84.9),
  ('Cc1nc(Nc2n[nH]c3c2CN(C(=O)N[C@H](CN(C)C)c2ccccc2)C3(C)C)c2sccc2n1', 4.75);

// lookup relative cell viability for COC(=O)[C@@]1(O)C[C@H]2O[C@]1(C)n1c3ccccc3c3c4c(c5c6ccccc6n2c5c31)C(=O)NC4 [K-252a]
5.96

----------
Test system: SKBR3
protocol_summary: relative cell viability vs DMSO control (% of DMSO control); higher = less growth inhibition (higher viability)
condition_set: 0.1 µM; treatment time: 72 h
readout_kind: relative cell viability
One number for each entry.

Here's what some known entries look like.
INSERT INTO assay_data (test_smiles, readout_kind, readout_number) VALUES
  ('CC(C)c1cc(CNc2nc(Nc3cc(C4CC4)[nH]n3)cc(N3CCN(C)CC3)n2)on1', 'relative cell viability', 100),
  ('Cc1cc(Nc2ncc(Cl)c(Nc3ccccc3S(=O)(=O)C(C)C)n2)c(OC(C)C)cc1C1CCNCC1', 'relative cell viability', 99.8),
  ('COCCN1CCN(Cc2ccc(-c3n[nH]c4c3C(=O)c3c(NC(=O)NN5CCOCC5)cccc3-4)cc2)CC1', 'relative cell viability', 18.1);

Shift focus to the following entry.
// lookup relative cell viability for `Cc1c(F)cc(C(=O)NC2CC2)cc1-c1ccc(C(=O)NCC(C)(C)C)cn1`
95.9

----------
Test system: HCC1806
protocol_summary: relative cell viability vs DMSO control (% of DMSO control); higher = less growth inhibition (higher viability)
condition_set: 30 µM; treatment time: 72 h
For each entry below, report its relative cell viability value.
One number for each entry.

Here's what some known entries look like.
INSERT INTO measurements (test_smiles, readout_number) VALUES
  ('C[C@]12O[C@H](C[C@]1(O)CO)n1c3ccccc3c3c4c(c5c6ccccc6n2c5c31)CNC4=O', 0.918),
  ('COCCN1CCN(Cc2ccc(-c3n[nH]c4c3C(=O)c3c(NC(=O)NN5CCOCC5)cccc3-4)cc2)CC1', 2.82);

// lookup relative cell viability for `CN1CCN(c2nc(C3=C(c4c[nH]c5ccccc45)C(=O)NC3=O)c3ccccc3n2)CC1`
43.3
